- measurementDescription: plasmodial surface anion channel blockers, osmotic lysis – cell-based, P. falciparum Indochina, OD700, 1 h, primary screen (AID 1154)
- experimentalParameters: P. falciparum Indochina infected RBC osmotic lysis, higher = more signal, called active from +8 up or from −8 down
Give YES when the value for z-score is at least 2. Give NO when it is less.

Take a look at these entries with their results.
O=C1NC(=O)C2C1C=CC(C(O)C=Cc1ccc([N+](=O)[O-])cc1)N2Nc1ccc(Cl)cc1Cl (stereo unspecified) ... YES
CC(C)CN1C(=O)[C@@]2(c3ccc([N+](=O)[O-])cc3)CC(=O)N(C3CCCCC3)[C@@H]2c2ccc(CO)cc21 ... NO
O=C1[C@H]2C=C(Br)[C@H](C[C@@H]2OCCCCCCO)[C@@]12CO2 ... NO
CO[C@H]1O[C@H](CO)[C@@H](OC(=O)Nc2ccccc2-c2ccccc2)[C@H](OC(=O)Nc2ccccc2-c2ccccc2)[C@@H]1OC(=O)Nc1ccccc1-c1ccccc1 ... NO
COC(=O)[C@@]1(Cc2ccc(OC)cc2)[C@H]2c3cc(C(=O)N4CCCC4)n(CCCNc4ncc(C(F)(F)F)cc4Cl)c3C[C@H]2CN1C(=O)c1ccccc1 ... YES
C=CC[C@]1(C(N)=O)COC(c2ccc(OCCCO)cc2)=N1 ... YES

Quick check: does CC=CC(O)C1C=CC2C(=O)N(C)C(=O)C2N1N(c1ccccc1)c1ccccc1 (stereo unspecified) have z-score greater than or equal to 2?
NO

Item C=CC[C@]12N=C(c3ccc(OCCCO)cc3)O[C@H]1c1ccccc1N(CCS(=O)(=O)c1ccccc1)C2=O with z-score of 2 or above?
YES

# bool: z-score of CC(C)NC(=O)[C@@H]1c2ccccc2C(=O)N(C(C)C)[C@H]1c1ccc(CO)cc1 >= 2
YES

Please indicate if the recorded z-score for CCCCC(O)C1C=CC2C(=O)N(C)C(=O)C2N1N1CCCCC1 (stereo unspecified) meets or exceeds 2.
NO

Textbook exercise: given the entry COC(=O)[C@@]1(CCC(=O)OC(C)(C)C)N=C(c2ccc(OCCCO)cc2)O[C@H]1c1ccccc1 , state whether its z-score is greater than or equal to 2.
YES

* * *

- measurementDescription: blockers of DNA damage checkpoint Chk1 activation – imaging, HeLa, hydroxyurea, phospho-Chk1 antibody, percent positive cells, primary screen (AID 1186)
- experimentalParameters: hydroxyurea-induced phospho-Chk1 immunofluorescence imaging, higher = more signal
z-score vs 0.2: at or above is Y, below is N.

Worked examples follow.
O=C(NC1CC1)[C@@H]1c2ccccc2C(=O)N(Cc2cc(F)cc(C(F)(F)F)c2)[C@H]1c1ccc(CO)cc1 ... N
O=C1OCCC=C[C@H]2OC34C=CCN(CCN5CCOCC5)C(=O)[C@H]3N(CCCCCO)C(=O)[C@@H]4C12 (some centres not stated) ... N
COc1ccc([Si](C)(C)[C@@H]2[C@@H](CCn3cc(CCO)nn3)O[C@]3(C(=O)N(Cc4cccc(N5C(=O)c6cccc7cccc5c67)c4)c4ccccc43)[C@H]2C)cc1 ... N
NC(=O)[C@@H]1[C@H]2C(=O)O[C@H](c3ccccc3)[C@H](c3ccccc3)N2[C@H](c2ccc(OCCO)cc2)[C@@]12C(=O)Nc1ccc(C#CC3=CCCCC3)cc12 ... N
O=C1C[C@@](C(=O)NCc2ccccc2)(c2ccc([N+](=O)[O-])cc2)[C@@H](c2ccc(CO)cc2)N1CC12CC3CC(CC(C3)C1)C2 ... N

For this molecule, is measured z-score 0.2 or higher? CS(=O)(=O)CCOC(=O)C1=CC(CCCO)=CC(c2ccc(CN3CCCC3)cc2)N(Cc2cccc(OC(F)(F)F)c2)C=C1C(=O)OCCS(C)(=O)=O (configuration not stated)
N

* * *

Listing of entries alongside the reported composite z-score.
- tgt: Torsin-1A (Homo sapiens) (UniProt O14656)
- Sequence (O14656 whole entry, looked up): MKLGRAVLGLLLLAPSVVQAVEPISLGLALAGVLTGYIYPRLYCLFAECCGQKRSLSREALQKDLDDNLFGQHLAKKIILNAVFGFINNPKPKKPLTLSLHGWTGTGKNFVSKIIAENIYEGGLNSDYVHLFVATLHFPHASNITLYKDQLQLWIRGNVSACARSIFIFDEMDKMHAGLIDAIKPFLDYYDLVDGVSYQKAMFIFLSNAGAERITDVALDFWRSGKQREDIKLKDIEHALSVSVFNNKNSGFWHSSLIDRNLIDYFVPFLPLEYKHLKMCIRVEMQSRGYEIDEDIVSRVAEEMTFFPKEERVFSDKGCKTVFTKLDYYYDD
- measurementDescription: torsin A mutant lysate binding on microarrays – cell lysate, small-molecule microarray, COS7 lysate, 635/667 nm fluorescence, primary screen (AID 1150);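 further: score pools 667 nm emission and signal to noise measuring lysate protein binding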
- experimentalParameters: COS7 hTOR1A mutant lysate, 635 nm fluorescence, higher = more signal
I'd appreciate a reply containing only the number, no unit.

COCCCNC(=O)[C@]1(Cc2ccccc2)N=C(c2ccc(OCCCO)cc2)O[C@@H]1c1ccccc1CN=[N+]=[N-] ... 0.82
COc1ccc([Si](C)(C)[C@@H]2[C@@H](CCO)O[C@]3(C(=O)N(Cc4cccc(N5CCOC5=O)c4)c4ccccc43)[C@H]2C)cc1 ... 0.226
COC(=O)c1c(CC[C@@H](CO)NC(=O)NCCc2c[nH]c3ccccc23)oc(C(=O)Cc2ccccc2)c1C(=O)OC ... 0.0487
C#CCNCc1ccccc1 ... 0.442
C[N+](C)(C)CCCC[C@@H]1NC(=O)[C@@H]2C[C@H](C(=O)NCCCCCCNC(=O)CS)[C@H](c3ccc(O)cc3)N2C1=O ... 0.461

composite z-score lookup needed for CCCCN1CC=CC23O[C@@H]4C=CCOC(=O)[C@@H]4[C@H]2C(=O)N(CCCCCCO)[C@@H]3C1=O (stereo partly drawn) , thanks.
-0.748

Can you share its composite z-score? I mean this compound: COCCOC(=O)N1C(=O)[C@@]2(c3ccccc31)[C@H](C(N)=O)[C@H]1C(=O)O[C@H](c3ccccc3)[C@H](c3ccccc3)N1[C@@H]2c1ccc(O)cc1
0.779

Which composite z-score value belongs to COCCCNC(=O)[C@@]1(Cc2ccccc2CN=[N+]=[N-])N=C(c2ccc(OCCCO)cc2)O[C@H]1c1ccccc1CN=[N+]=[N-] ?
0.511

* * *

- measurementDescription: probe aNog binding to arrayed compounds – biochemical, biotinylated probe, 635/667 nm fluorescence, primary screen (AID 1115);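 further: probe is biotinylated aNog protein used at 0.15 µg/mL for 1 h at 4 C; z-score combines 667 nm fluorescence of each spot with its signal to noise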
- experimentalParameters: small-molecule microarray, higher = more signal
# composite z-score listing for each entry below
No unit in the answer, only the number.

C#CCNCc1ccccc1 ... -0.213

Which composite z-score value is on record for COCCCNC(=O)[C@@]1(CCS(=O)(=O)c2ccccc2)N=C(c2ccc(OCCCO)cc2)O[C@H]1c1ccccc1N=[N+]=[N-] ?
1.36

Reported composite z-score for [N-]=[N+]=Nc1ccccc1C[C@@]1(C(=O)N2CCCCC2)N=C(c2ccc(OCCCO)cc2)O[C@@H]1c1ccccc1 : what is it?
1.79

Item COc1ccc(NN2C(C(O)c3ccc(N(C)C)cc3)C=CC3C(=O)N(C4CCCCC4)C(=O)C32)cc1 (stereo not drawn) has what recorded composite z-score?
0.42

For the compound COC(=O)C(CC#Cc1ccc2c(c1)[C@]1(C(=O)N2)[C@H](c2ccccc2OCCO)N2[C@H](c3ccccc3)[C@H](c3ccccc3)OC(=O)[C@H]2[C@@H]1C(=O)O)C(=O)OC , what composite z-score is on record?
0.0258

Please look up its composite z-score: COC(=O)[C@@]1(CCC(=O)OC(C)(C)C)N=C(c2ccc(OCCCO)cc2)O[C@H]1c1ccccc1
0.711

Endpoint output: composite z-score of CC(C)NC(=O)[C@@H]1c2ccccc2C(=O)N(C(C)C)[C@H]1c1ccc(CO)cc1 . Value?
-0.196

Which composite z-score value is on record for O=C1[C@H]2C=C(Br)[C@H](C[C@@H]2OCCCCCCO)[C@@]12CO2 ?
-0.234

* * *

- measurementDescription: probe aWnt5a binding to arrayed compounds – biochemical, biotinylated probe, 635/667 nm fluorescence, primary screen (AID 1113);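 further: score merges 667 nm fluorescence intensity with signal-to-noise per printed feature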
- experimentalParameters: small-molecule microarray, higher = more signal
observationType: composite z-score

O=C1OCC=C[C@H]2OC34C=CCN(Cn5nnc6ccccc65)C(=O)[C@H]3N(CCCCCO)C(=O)[C@@H]4[C@@H]12 (stereo partly drawn) ... 0.184
COc1ccc(C#Cc2ccc3c(c2)[C@]2(C(=O)N3)[C@H](c3ccc(O)cc3)N3[C@H](c4ccccc4)[C@H](c4ccccc4)OC(=O)[C@H]3[C@@H]2C(=O)N2CCc3cc(OC)c(OC)cc3C2)cc1 ... -0.0643

Now look at this entry.
Look up composite z-score: COC(=O)c1c(CC[C@@H](CO)NC(=O)N[C@@H](Cc2ccccc2)Cn2cc(-c3ccccn3)nn2)oc(C(=O)N2CCOCC2)c1C(=O)OC
-0.204

* * *

// reported composite z-score per item
- Tested on: Neuregulin-1 EGF-like domain
- measurementDescription: small molecules binding NRG1 EGF domain – biochemical, small-molecule microarray, 635 nm fluorescence, primary screen (AID 1081);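 further: binding of the protein to compounds printed on small-molecule microarray slides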
- experimentalParameters: higher = more signal
Form field (numeric): enter value without unit.

CO[C@H]1O[C@H](CO)[C@@H](OC(=O)Nc2ccccc2)[C@@H]2OC(=O)[C@@H](Cc3ccc4ccccc4c3)C/C=C/C[C@H](Cc3ccc4ccccc4c3)C(=O)O[C@@H]12 ... 0.965
C=C(/C(=C/C[C@H](OC(C)=O)c1ccc(OCCO)cc1)c1cc(C(=O)OC)ccc1OC)C(C)C ... 0.376
C=C(CCCC)C(=O)CC[C@@H](OC(C)=O)c1ccc(CO)o1 ... -0.0318
NC(=O)[C@@H]1[C@H]2C(=O)O[C@H](c3ccccc3)[C@H](c3ccccc3)N2[C@H](c2ccc(O)cc2)[C@@]12C(=O)Nc1ccc(C#CC3=CCCCC3)cc12 ... 1.15
COC(=O)[C@@]1(Cc2ccc(OC)cc2)[C@H]2c3cc(C(=O)N4CCCC4)n(Cc4nc5ccccc5[nH]4)c3C[C@H]2CN1C(=O)c1ccccc1 ... 1.14
O=C(O)[C@@]1(CCS(=O)(=O)c2ccccc2)N=C(c2ccc(OCCCO)cc2)O[C@H]1c1ccccc1 ... 1.06

Kindly consider the entry below.
Which composite z-score is reported for this compound? COCCCNC(=O)[C@@]1(Cc2ccccc2)N=C(c2ccc(OCCCO)cc2)O[C@H]1c1ccccc1CN=[N+]=[N-]
1.11
